The entries below come with measured melting point values attached.

>>> value_measured("CCc1nc(C(O)c2cccs2)c2sccc2n1 (stereo not drawn)")
"147 to 149 °C"
>>> value_measured("O=C(c1cc(Cl)cc(Cl)c1)c1nc(C(F)(F)F)nc2ccsc12")
"147 to 149 °C"
>>> value_measured("CN(C)CCNC(=O)c1nc(C(=O)c2cccs2)c2sccc2n1")
"143.6 to 144.7 °C"

Record "CN(C)c1nc(C(=O)c2ccco2)c2sccc2n1" , field melting point: 210 to 212 °C

Record "O=C(c1cccc(Cl)c1)c1nc(C(F)(F)F)nc2ccsc12" , field melting point: 128 to 130 °C

Record "Cc1ccsc1C(=O)c1nc(N(C)C)nc2ccsc12" , field melting point: 165.1 to 165.7 °C

Record "O=C(c1ccccc1)c1nc(Cl)nc2ccsc12" , field melting point: 162.2 to 163.1 °C

Record "CCCc1nc(C(=O)c2cccs2)c2sccc2n1" , field melting point: 122 to 125 °C

Record "Cc1ccsc1C(=O)c1nc(NCCO)nc2ccsc12" , field melting point: 194.5 to 195 °C

Record "Cc1cccc(C(=O)c2nc(C(F)(F)F)nc3ccsc23)c1" , field melting point: 131 to 133 °C

###

The entries below come with measured melting point values attached.

Example compounds with recorded melting point:
>>> value_measured("O=C(c1cccs1)c1nc(N2CCC[C@@H]2C(=O)O)nc2ccsc12")
"> 131 °C (dec.)"
>>> value_measured("Cc1c(C(=O)c2nc(C(F)(F)F)nc3ccsc23)sc2ccccc12")
"262 to 263 °C"
>>> value_measured("COc1nc(C(=O)c2cccs2)c2scc(C)c2n1")
"144 to 146 °C"

Record "O=C(c1cc(Br)cs1)c1nc(C(F)(F)F)nc2ccsc12" , field melting point: 178 to 179 °C

###

Where a name gives a salt, the structure may show the parent alone.
The entries below come with measured melting point values attached.

Example compounds with recorded melting point:
>>> value_measured("O=C(c1cccs1)c1nc(NCCN2CCOCC2)nc2ccsc12")
"> 120 °C (dec.)"
>>> value_measured("CS(=O)(=O)NNc1nc(C(=O)c2cccs2)c2sccc2n1")
"242.1 to 242.7 °C"
>>> value_measured("C=CCNC(=O)NNc1nc(C(=O)c2cccs2)c2sccc2n1")
"252.8 to 253.3 °C"
>>> value_measured("O=C(c1cc2ccccc2o1)c1nc(C(F)(F)F)nc2ccsc12")
"221 to 223 °C"
>>> value_measured("C=CCNc1nc(C(=O)c2cccs2)c2sccc2n1")
"142.1 to 142.9 °C"

Record "Cc1cc(C(=O)c2nc(C(F)(F)F)nc3ccsc23)oc1C" , field melting point: 185 to 186 °C

Record CN(C)CC(=O)Nc1nc(C(=O)c2cccs2)c2sccc2n1 (as salt: hydrochloride) , field melting point: 151 °C

Record "O=C(c1ccc([N+](=O)[O-])cc1)c1nc(C(F)(F)F)nc2ccsc12" , field melting point: 185 to 186 °C

Record "Cc1ccsc1C(=O)c1nc(C(F)(F)F)nc2ccsc12" , field melting point: 201 to 202 °C

###

quantity-name: melting point

Example compounds with recorded melting point:
>>> value_measured("O=C(c1ccccc1)c1nc(NCCO)nc2ccsc12")
"114.1 to 114.9 °C"
>>> value_measured("CC(C)Nc1nc(C(=O)c2cccs2)c2sccc2n1")
"134.8 to 135.6 °C"
>>> value_measured("CN(C)C(=O)c1nc(C(=O)c2cccs2)c2sccc2n1")
"173.1 to 174 °C"
>>> value_measured("CCOc1nc(C(=O)c2cccs2)c2sccc2n1")
"164.6 to 165.4 °C"
>>> value_measured("CC(=O)NCCNc1nc(C(=O)c2cccs2)c2sccc2n1")
"212.2 to 212.5 °C"

Record "Cc1ccc(C(=O)c2nc(C(F)(F)F)nc3ccsc23)cc1" , field melting point: 127 to 129 °C

###

The entries below come with measured melting point values attached.
Where a name gives a salt, the structure may show the parent alone.

>>> value_measured("CN(C)CCNc1nc(C(=O)c2cccs2)c2sccc2n1 (as salt: hydrochloride) [Example 66, dihydrochloride]")
"> 150 °C (dec.)"

Record CSc1nc(C(=O)c2cccs2)c2scc(C)c2n1 [Example 39] , field melting point: 144 to 166 °C

Record NC(=O)CNc1nc(C(=O)c2cccs2)c2sccc2n1 [Example 125] , field melting point: 232.1 to 233.7 °C

Record CCCc1nc(C(C#N)c2ccccn2)c2sccc2n1 (centres unmarked) [Example 60] , field melting point: 185 to 187 °C

Record CC(C)(C)OC(=O)NCCNc1nc(C(=O)c2cccs2)c2sccc2n1 [Example 54] , field melting point: 199.9 to 200.7 °C

Record COC(=O)CNc1nc(C(=O)c2cccs2)c2sccc2n1 [Example 123] , field melting point: 144.6 to 145.2 °C

###

The entries below come with measured melting point values attached.

Record Cc1nc(C(O)c2cccs2)c2sccc2n1 (centres unmarked) , field melting point: 144 to 146 °C

Record "COCCNc1nc(C(=O)c2cccs2)c2sccc2n1" , field melting point: 135.6 to 135.9 °C

Record "O=C(c1cccs1)c1nc(N2CCCC2)nc2ccsc12" , field melting point: 229.1 to 229.4 °C

###

quantity-name: melting point

>>> value_measured("Cc1ccc(C(=O)c2nc(C(F)(F)F)nc3ccsc23)s1")
"161 to 163 °C"
>>> value_measured("O=C(c1ccc(Br)s1)c1nc(C(F)(F)F)nc2ccsc12 [Example 46]")
"180 to 182 °C"
>>> value_measured("O=C(c1cccnc1)c1nc(NCCO)nc2ccsc12 [Example 106]")
"161 to 163 °C"

Record CC(C)(CO)Nc1nc(C(=O)c2cccs2)c2sccc2n1 [Example 119] , field melting point: 126.4 to 127.1 °C

Record CN(C)c1nc(C(=O)c2ccccc2)c2sccc2n1 [Example 40] , field melting point: 116.5 to 117 °C

Record O=C(c1cccs1)c1nc(Cl)nc2ccsc12 [Example 44] , field melting point: 190.5 to 191 °C

Record O=C(c1ccc(Cl)cc1)c1nc(C(F)(F)F)nc2ccsc12 [Example 30] , field melting point: 127 to 128 °C

Record Cc1ccsc1C(=O)c1nc(NCCCn2ccnc2)nc2ccsc12 [Example 132] , field melting point: 138.1 to 138.7 °C

Record CCOC(=O)c1nc(C(=O)c2cccs2)c2sccc2n1 [Example 122] , field melting point: 185.7 to 186.2 °C

Record CN(C)c1ccc(C(=O)c2nc(C(F)(F)F)nc3ccsc23)s1 [Example 56] , field melting point: 188 to 191 °C

Record Cc1csc2c(C(=O)c3cccs3)nc(Cl)nc12 [Example 24] , field melting point: 188 to 190 °C

###

quantity-name: melting point

>>> value_measured("O=C(c1cccs1)c1nc(N2CCOCC2)nc2ccsc12")
"199.9 to 200.5 °C"
>>> value_measured("OC(c1cccs1)c1nc(C(F)(F)F)nc2ccsc12 (centres unmarked)")
"157 to 158 °C"
>>> value_measured("Cc1csc2c(C(=O)c3cccs3)nc(N(C)C)nc12")
"156 to 158 °C"
>>> value_measured("Cc1ccccc1C(=O)c1nc(C(F)(F)F)nc2ccsc12")
"116 to 118 °C"
>>> value_measured("O=C(c1cccs1)c1nc(NCc2ccccn2)nc2ccsc12")
"178.6 to 179.3 °C"
>>> value_measured("COc1ccc(C(=O)c2nc(C(F)(F)F)nc3ccsc23)cc1")
"155 to 157 °C"
>>> value_measured("CCOC(=O)CCCNc1nc(C(=O)c2cccs2)c2sccc2n1")
"143.3 to 143.7 °C"
>>> value_measured("CCc1nc(C(C#N)c2ccccn2)c2sccc2n1 (centres unmarked)")
"240 to 242 °C"

Record "O=C(c1ccccc1Cl)c1nc(C(F)(F)F)nc2ccsc12" , field melting point: 122 to 123 °C

Record "CN(CCN)c1nc(C(=O)c2cccs2)c2sccc2n1" , field melting point: 151.6 to 152.4 °C

Record "O=C(c1cccs1)c1nc(NCc2ccco2)nc2ccsc12" , field melting point: > 140 °C (dec.)
